// provenance: ChEMBL document CHEMBL1147062

experiment-notes: Terminal half life in NCR nu/nu mouse plasma at 20 mg/kg, iv
Format: ADME, organism-based
Design: dose 20 mg/kg, route intravenous
assay-endpoint: half-life (h)
Answers are plain numbers, in h.

### Prompt State the recorded half-life for this entry: CC(C)[C@H](O)C(=O)N[C@@H]1C(=O)N[C@@H](C(C)C)c2nc3c(o2)C24c5ccc(cc5N[C@H]2Oc2ccc1cc24)-c1cccc2[nH]cc(c12)-c1cnc-3o1 (single isomer, unassigned)
### Response 4.96

====

experiment-notes: AUC in NCR nu/nu mouse plasma at 20 mg/kg, iv
Assay type: ADME, organism-based
Parameters: dose 20 mg/kg, route intravenous
assay-endpoint: AUC (ng·h/mL)
Answers are plain numbers, in ng·h/mL.

### Prompt State the recorded AUC for this entry: CC(C)[C@H](O)C(=O)N[C@@H]1C(=O)N[C@@H](C(C)C)c2nc3c(o2)C24c5ccc(cc5N[C@H]2Oc2ccc1cc24)-c1cccc2[nH]cc(c12)-c1cnc-3o1 (single isomer, unassigned)
### Response 50200
